# credit: paper PMC6895048

Biological target: IDO1 (Homo sapiens, UniProt P14902)
Sequence (P14902 whole entry): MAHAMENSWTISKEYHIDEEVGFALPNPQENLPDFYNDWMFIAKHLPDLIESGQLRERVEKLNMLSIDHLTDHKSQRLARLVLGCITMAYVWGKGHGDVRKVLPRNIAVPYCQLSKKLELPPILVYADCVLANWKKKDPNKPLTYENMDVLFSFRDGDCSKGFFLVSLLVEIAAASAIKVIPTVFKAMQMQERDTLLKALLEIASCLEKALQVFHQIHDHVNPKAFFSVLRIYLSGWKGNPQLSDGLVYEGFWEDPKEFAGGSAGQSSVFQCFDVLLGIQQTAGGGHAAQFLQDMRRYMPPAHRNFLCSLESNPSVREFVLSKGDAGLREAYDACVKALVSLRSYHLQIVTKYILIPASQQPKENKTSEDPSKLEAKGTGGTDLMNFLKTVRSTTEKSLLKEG
Experiment: Circular dichroism analysis of IDO1 enzyme
Set-up: made in house; host or cells: Escherichia coli M15 (pQE30 vector with pREP4 plasmid)
Conditions: compound 0.25 µM
ASSAY ENDPOINT: % of Secondary structural elements, Turn (%)

NS(=O)(=O)NCCNC(=O)c1n[nH]nc1-c1ccc(F)c(F)c1 35.3
CCOC(=O)c1n[nH]nc1-c1ccc(F)c(F)c1 34.1
NC(=O)c1n[nH]nc1-c1ccc(F)c(F)c1 34.1
O=C(N/C(Cc1ccc(O)cc1)=N\O)c1n[nH]nc1-c1ccc(F)c(F)c1 33.9
